Values compiled from patent US10214519B2.

# Experimental Target: UniProtKB P42338
# Assay Explanation: PI3K isoform TR-FRET enzymatic assay (PI3Kβ)
# Experimental Context: 2× Km ATP, 30 minutes at 25° C.
# Method: The compounds of formula (I) were characterized for their enzymatic activity against the PI3K isoforms. The activities were measured using a time-resolved fluorescence resonance energy transfer (TR-FRET) assay. TR-FRET monitored the formation of 3,4,5-inositol triphosphate molecule that competed with fluorescently labeled PIP3 for binding to the GRP-1 pleckstrin homology domain protein. Class I PI3K isoforms were expressed and purified as heterodimeric recombinant proteins. […]
pIC50: −log10 of the molar value.
Observable: pIC50

As a guide, the following entries are already answered.
# Compound, Observed Result
data = [
    ("Cc1c[nH]c(-c2cc(N3CCOCC3)cc3c2nc(C)n3-c2ccnc3c(Cl)cccc23)n1", 6.29),
    ("Fc1ccc(Cl)c2nccc(-n3c(C4CC4)nc4c(-c5ncco5)cc(N5CCOCC5)cc43)c12", 8.22),
    ("CCc1nc2ccccc2c(-n2c(C)nc3c(-c4nc(C)n[nH]4)cc(N4CCOCC4)cc32)c1C", 7.54),
    ("Cc1nc2c(-c3cn[nH]c3)cc(N3CCOCC3)cc2n1-c1ccnc2c(Cl)cccc12", 6.77),
]

I = Cc1nc2c(-c3nccs3)cc(N3CCOCC3)cc2n1-c1ccnc2c(Cl)cccc12
II = Cc1nnc(-c2cc(N3CCOCC3)cc3c2nc(C)n3-c2c(Cl)cnc3c(Cl)cccc23)[nH]1 (atropisomer, axis not shown) [Compound 366]
III = Clc1cccc2c(-n3c(C4CCCO4)nc4c(-c5cccnc5)cc(N5CCOCC5)cc43)ccnc12 (stereo not drawn)
INPUT: Order the records, beginning with the lowest pIC50 and ending with the highest. Returns: the labels arranged in the requested order.
OUTPUT: III, II, I
(III: 6.21, II: 7.77, I: 8.05)

###

# Experimental Target: PI3Kβ (Homo sapiens (Human))
# Sequence (P42338 whole entry, canonical isoform): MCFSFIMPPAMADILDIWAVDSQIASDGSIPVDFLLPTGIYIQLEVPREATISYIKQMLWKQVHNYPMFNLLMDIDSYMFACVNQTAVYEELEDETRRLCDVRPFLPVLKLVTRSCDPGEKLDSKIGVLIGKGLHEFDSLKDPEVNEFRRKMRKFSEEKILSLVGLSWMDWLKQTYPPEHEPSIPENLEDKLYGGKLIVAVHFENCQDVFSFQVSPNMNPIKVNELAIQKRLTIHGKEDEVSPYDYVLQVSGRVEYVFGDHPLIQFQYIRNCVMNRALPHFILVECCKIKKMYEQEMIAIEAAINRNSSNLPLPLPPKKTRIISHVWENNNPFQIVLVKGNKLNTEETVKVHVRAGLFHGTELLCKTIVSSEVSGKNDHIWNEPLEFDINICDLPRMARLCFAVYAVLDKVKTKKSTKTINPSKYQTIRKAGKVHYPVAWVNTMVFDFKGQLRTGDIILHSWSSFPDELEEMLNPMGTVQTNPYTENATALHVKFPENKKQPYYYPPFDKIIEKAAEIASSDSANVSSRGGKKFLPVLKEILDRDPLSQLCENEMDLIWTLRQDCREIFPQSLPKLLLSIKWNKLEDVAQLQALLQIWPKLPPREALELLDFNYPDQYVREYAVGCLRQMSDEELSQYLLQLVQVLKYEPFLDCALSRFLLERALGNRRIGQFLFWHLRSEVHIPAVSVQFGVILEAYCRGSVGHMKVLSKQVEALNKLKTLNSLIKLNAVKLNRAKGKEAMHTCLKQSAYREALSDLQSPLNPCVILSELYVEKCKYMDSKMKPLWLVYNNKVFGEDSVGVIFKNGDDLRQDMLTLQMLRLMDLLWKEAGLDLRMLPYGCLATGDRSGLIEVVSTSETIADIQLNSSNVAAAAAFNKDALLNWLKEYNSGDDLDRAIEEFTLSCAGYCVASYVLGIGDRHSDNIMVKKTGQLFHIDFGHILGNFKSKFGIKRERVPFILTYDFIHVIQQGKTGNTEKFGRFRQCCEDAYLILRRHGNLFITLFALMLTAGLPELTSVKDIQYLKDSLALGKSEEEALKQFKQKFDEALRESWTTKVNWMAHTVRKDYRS
# Sequence (P27986 whole entry partner, canonical isoform): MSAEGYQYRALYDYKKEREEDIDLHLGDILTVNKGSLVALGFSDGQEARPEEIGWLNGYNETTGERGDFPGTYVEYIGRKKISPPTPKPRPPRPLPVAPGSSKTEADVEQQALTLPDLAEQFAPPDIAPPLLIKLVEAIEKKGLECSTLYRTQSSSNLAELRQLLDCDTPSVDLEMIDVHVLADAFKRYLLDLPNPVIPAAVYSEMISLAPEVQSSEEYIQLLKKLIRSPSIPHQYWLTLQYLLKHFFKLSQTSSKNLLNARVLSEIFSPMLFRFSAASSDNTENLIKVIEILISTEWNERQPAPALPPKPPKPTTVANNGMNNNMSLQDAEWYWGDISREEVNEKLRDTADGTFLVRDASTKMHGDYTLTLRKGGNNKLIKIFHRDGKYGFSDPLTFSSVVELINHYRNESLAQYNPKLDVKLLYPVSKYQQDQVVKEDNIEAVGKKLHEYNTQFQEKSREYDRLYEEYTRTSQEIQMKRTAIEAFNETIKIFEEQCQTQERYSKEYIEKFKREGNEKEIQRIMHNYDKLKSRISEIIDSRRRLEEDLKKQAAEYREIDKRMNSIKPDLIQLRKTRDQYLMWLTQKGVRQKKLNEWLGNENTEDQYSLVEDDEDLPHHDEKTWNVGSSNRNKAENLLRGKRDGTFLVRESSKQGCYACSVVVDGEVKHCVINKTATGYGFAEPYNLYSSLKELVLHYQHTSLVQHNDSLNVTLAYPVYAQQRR
# Assay Explanation: PI3K isoform TR-FRET enzymatic assay (PI3Kβ)
# Format: biochemical
# Experimental Context: 2× Km ATP, 30 minutes at 25° C.
# Procedure: The compounds of formula (I) were characterized for their enzymatic activity against the PI3K isoforms. The activities were measured using a time-resolved fluorescence resonance energy transfer (TR-FRET) assay. TR-FRET monitored the formation of 3,4,5-inositol triphosphate molecule that competed with fluorescently labeled PIP3 for binding to the GRP-1 pleckstrin homology domain protein. Class I PI3K isoforms were expressed and purified as heterodimeric recombinant proteins. […]
pIC50: −log10 of the molar value.
Observable: pIC50

# Molecule, pIC50
measured = [
    ("Cc1cccc2nccc(-n3cnc4c(-c5nnc[nH]5)cc(N5CCOCC5)cc43)c12", 7.64),
    ("Cc1nnc(-c2cc(N3CCOCC3)cc3c2nc(C)n3-c2ccnc3c(Cl)ccc(Cl)c23)[nH]1", 7.36),
    ("Cc1nc2c(-c3nnc[nH]3)cc(N3CCOCC3)cc2n1-c1c(Cl)cnc2ccccc12", 7.29),
    ("Cc1nc2c(-c3nnc[nH]3)cc(N3CCOC[C@@H]3C)cc2n1-c1ccnc2c(Cl)cccc12", 7.48),
]

1 = CCc1nc2c(-c3nnc[nH]3)cc(N3CCOCC3)cc2n1-c1c(C)cnc2c(C#N)cccc12 (atropisomer, axis not shown) [Compound 364]
2 = COC(C)c1nc2c(-c3nnc[nH]3)cc(N3CCOCC3)cc2n1-c1ccnc2c(Cl)cccc12 (stereo not drawn)
3 = Cc1nnc(-c2cc(N3CCOCC3)cc3c2nc(C)n3-c2ccnc3c(Cl)c(F)ccc23)[nH]1
4 = CCCc1nc2c(-c3nnc[nH]3)cc(N3CCOCC3)cc2n1-c1ccnc2c(Cl)cccc12 [Compound 1, 2,2,2-trifluoroacetate]
5 = Fc1ccc2c(-n3c(C4CC4)nc4c(-c5nnc(Cl)[nH]5)cc(N5CCOCC5)cc43)ccnc2c1Cl
INPUT: Rank descending by pIC50. Returns: the labels arranged in the requested order.
OUTPUT: 4, 3, 1, 2, 5
